Substrate: gfPET
Assay: Proxy for plastic degradation [Released monomer concentration (HPLC/LC-MS) (TPA+MHET+BHET)]
Details: 80 °C
observed_property: Proxy for plastic degradation (mmol/h)
// note: answer is a bare numeric in mmol/h

[
  {
    "protein": "unnamed (protein) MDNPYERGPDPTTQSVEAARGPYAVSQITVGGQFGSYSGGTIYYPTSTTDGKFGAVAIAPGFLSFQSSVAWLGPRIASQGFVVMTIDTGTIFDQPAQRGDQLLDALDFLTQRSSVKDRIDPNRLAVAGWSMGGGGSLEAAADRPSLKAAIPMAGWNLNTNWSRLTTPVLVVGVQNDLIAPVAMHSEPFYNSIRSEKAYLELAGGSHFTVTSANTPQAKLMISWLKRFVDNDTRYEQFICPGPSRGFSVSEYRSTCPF",
    "unit_of_measure": "mmol/h",
    "recorded_number": 0
  },
  {
    "protein": "unnamed (protein) MENPYERGPDPTESSIEAVRGPFAVAQTTVSRLQADGFGGGTIYYPTDTSQGTFGAVAISPGFTAGQESIAWLGPRIASQGFVVITIDTITRLDQPDSRGRQLQAALDHLRTNSVVRNRIDPNRMAVMGHSMGGGGALSAAANNTSLEAAIPLQGWHTRKNWSSVRTPTLVVGAQLDTIAPVSSHSEAFYNSLPSDLDKAYMELRGASHFVSNTPDTTTAKYSIAWLKRFVDNDLRYEQFLCPAPDDFAISEYRATCPF",
    "unit_of_measure": "mmol/h",
    "recorded_number": 0.41
  },
  {
    "protein": "unnamed (protein) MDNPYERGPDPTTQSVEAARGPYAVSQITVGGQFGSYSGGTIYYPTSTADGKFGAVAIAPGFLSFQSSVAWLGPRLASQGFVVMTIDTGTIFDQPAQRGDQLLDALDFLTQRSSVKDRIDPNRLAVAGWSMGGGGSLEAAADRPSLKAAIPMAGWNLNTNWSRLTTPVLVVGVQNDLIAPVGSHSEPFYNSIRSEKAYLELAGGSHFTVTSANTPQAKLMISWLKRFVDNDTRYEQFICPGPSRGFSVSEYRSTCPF",
    "unit_of_measure": "mmol/h",
    "recorded_number": 0
  }
]

Task item: Answer with the recorded Proxy for plastic degradation for the protein listed here: unnamed (protein) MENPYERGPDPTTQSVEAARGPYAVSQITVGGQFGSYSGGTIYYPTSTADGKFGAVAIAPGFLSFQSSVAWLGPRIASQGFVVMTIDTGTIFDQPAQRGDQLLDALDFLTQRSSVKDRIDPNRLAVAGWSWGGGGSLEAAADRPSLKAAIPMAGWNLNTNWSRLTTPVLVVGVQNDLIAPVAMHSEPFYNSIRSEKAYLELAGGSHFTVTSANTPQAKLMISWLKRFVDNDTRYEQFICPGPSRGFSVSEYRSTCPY
Reply: 0
